Cited source for all entries: the DeepSol protein solubility set

Protocol Description: soluble on expression in E. coli; label from the status in PepcDB or PDB records
Observable: soluble on expression in E. coli

Reference set (5 entries):
MLKIGIVGCGAIGNFITKKVLDGTIKNAKISAVYDRNFDKAKTLSERTGAKICSSIDDLVKEDLDLVVEAASIKAVEEIAEKSLINNKDVLIMSVGALADKKLFLKLRDLAKTVGRKIYLPSGAIGGLDAIKALRLGEIEEVVLKTTKPVAALEDALKNLGYKPEDIKNPVIVFEGDVFKAIKEFPANINVSVTLSIAAEFPAKVVIVADPNAKLNKHELFVKSSIGTLRVCIENVPFEENPRTSALAAYSAVRLIRDLAEPVKVGT	soluble
MSLQKEEILKLPISYKNIRLIRLNLPQKEQFVSGIGVRNSRKALIIEWEDDNGTKGYGECSCRPDPYYSDEFIEGAIALVNQFIVPFLKQNQTFGDLLKLLDKIRGWNFTKAAVEMAALQVIEQNTGKSPFQLLQNKPLAHVPVGISLGLYTDVDRMKKVVKNALETGYKRLKFKISPKVRVDFFEEINPMLFEADTFVSFDANGSFGENDLDIFHYFANTYQSMIEQPFAPTRFDILSKVKKEHPEIYICYDEEIKSIGDLIKLHHLGMLDEVNLKVGRVGGVMKSIEIIQYCAEHNIPCWIGGMFETGIGRTLNLRMASYLPNARAHDLSPSDRYFLEDIVQPNVQMNNGLVNMESLKNCTIQPNLIDKYTIDQKTLTRICEGHHHHHH	soluble
NVLLLDVTPLTLGIETFGGAFSPLIPRNTTVPVKKTEIFSTGVDGQAGVDIKVFQGERGLVRNNKLIGDLKLTGITPLPKGIPQIYVTFDIDADGIINVSAAEKSSGKQQSITVIPNSGLSEEEIAKLIEEANANRAQDNLIRQRLELISKADIMISDTENLFKRYEKLISSEKEYSNIVEDIKALRQAIKNFKANENDMSIDVNGIKKATDALQGRALKLFQSATKNQQNQGK	soluble
ASGSSFASTRKLLNRHSLHTVCRSAMCPNLHECWSKGTATFLLLGNVCTRSCRFCAVGTECRPAMPDPEEPSKIAEAVKTMKLRHAVLTSVNRDDLADGGATHWVETIRAIREVNPGVSLECLIPDFSGNEQSLDLVMQELPEVLNHNIETVPSRYAAVRPQALYERSLAVIERAKRQFRLATKSGMMVGMGETEEELEASLHDLRGHGCDMVTIGQYLQPTAAHLPVSRYVTPEEFERYREIALDAGFRHVQSGPFVRSSYHAEAFEPVEK	not soluble
METQEKKFVPASKQIPTVNSGWLDRELGEAMSEAVRACLAHGKQSEITVKLKIQPQNIQSGTVKISHDVATKLPKEKREGGIVFATPDGNIQADDPAQGKLKLKQVSNTSSTLKMVRSN	not soluble

Input line: // soluble on expression in E. coli lookup, key: MGHHHHHHSHMWSSREIEDLGLTFAIAIDKGKETNTEKELKEEGGSYPKKDNITLTYQFVNEKAAGAGTSGGGGSGQGAQKAYINISETGDSLQQIGSEVALRRDREVFSPHLKVVVMSEDVLHTFPIDEMLDQFFRDNEIRLSCLVLSAKGEARDALQLKENGEIPAFRLIGLGENEHKVSRILPPMTLAKLIGKLHSGSSFLLQNVVAANGAVKYSGAAVINGKSKKMIGTLNEYETEGITWIRGEGKGGVVKSHDKKSQQTLAYDINKIKSRIQPIVKGKDISFHVDIESEGDLVENWNTKEALDTQFIDRLETTIENEVKKIVGQVLKKIQHDYKADVAGFDESFRLTYPHLWKRVKNNWDDTFSKADITYSVNVTITHFGTVKTQ
Output line: soluble
